System: CCI-exposed rats
Method notes: von Frey test
Stated conditions: 1 nmol i.t., CCI rats
Endpoint label: toxic effect

{"Compound": "Cc1cc(O)cc(C)c1C[C@H](N)C(=O)N[C@H](CCCNC(=N)N)C(=O)N[C@H]1Cc2ccccc2CN(CCC(N)=O)C1=O [Compound 33, H-Dmt-D-Arg-Aba-β-Ala-NH2]", "Assay value": "toxic effect"}
{"Compound": "Cc1cc(O)cc(C)c1C[C@H](N)C(=O)N[C@H](CCCNC(=N)N)C(=O)N[C@H]1Cc2ccccc2CN(CCC(=O)N(C)Cc2ccccc2)C1=O [Compound 22, H-Dmt-D-Arg-Aba-β-Ala-NMe-Bn]", "Assay value": "not observed"}
{"Compound": "Cc1cc(O)cc(C)c1C[C@H](N)C(=O)N[C@H](CCCNC(=N)N)C(=O)N[C@H]1Cc2ccccc2CN(CC(N)=O)C1=O [Compound 7, H-Dmt-D-Arg-Aba-Gly-NH2]", "Assay value": "toxic effect"}
{"Compound": "Cc1cc(O)cc(C)c1C[C@H](N)C(=O)N[C@H](CCCNC(=N)N)C(=O)N[C@H]1Cc2ccccc2CN(CC(=O)N(C)Cc2cc(C(F)(F)F)cc(C(F)(F)F)c2)C1=O [Compound 4, H-Dmt-D-Arg-Aba-Gly-NMe-3’,5’-(CF3)2-Bn]", "Assay value": "not observed"}
